Attribution: the supplement of paper PMC10567573

B1: RAB11B (parent)
chain: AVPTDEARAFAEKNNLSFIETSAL

Variants of: B1
Experiment: protein stability index of a GFP-peptide fusion (GPS, HEK-293T) (PSI 1-6); higher = more stable;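 further: lentivirally expressed fusions sorted by FACS into six bins by GFP to DsRed ratio, PSI derived from sequencing read proportions per bin multiplied by bin number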
Conditions: c terminus: a fixed tail appended
Field: protein stability index. Provide a value for each of the variants that follow.
Lab note: jot the number down without any unit.

Per the record, `MVPTDEARAFAEKNNLSFIETSAL` has protein stability index of 2.64

Per the record, `AVPTDEARAHAEKNNLSFIETSAL` has protein stability index of 3.74

Per the record, `AVPTDMARAFAEKNNLSFIETSAL` has protein stability index of 2.19

Per the record, `AVPTDEARAFAEKNNLNFIETSAL` has protein stability index of 2.86

Per the record, `AVLTDEARAFAEKNNLSFIETSAL` has protein stability index of 2.28

Per the record, `AVPTDEARAFAEKNNLSFIETCAL` has protein stability index of 3.36

Per the record, `AVPTDEARAFAEKNNLSFVETSAL` has protein stability index of 3.26

Per the record, `AVPTDEARAFAENNNLSFIETSAL` has protein stability index of 1.59

Per the record, `AVPTDEARAFAEKNNLSFIETSAR` has protein stability index of 2.8

Per the record, `AVPTDEARAFAEKNNLSFIEHSAL` has protein stability index of 3.06

Per the record, `AVPTDEARAFAEKNNLSGIETSAL` has protein stability index of 4.47

Per the record, `AVPTDEARAFAEKNNLHFIETSAL` has protein stability index of 3.07

Per the record, `AVPTDEARAFAEKNNLSFIETSAG` has protein stability index of 4.49

Per the record, `AAPTDEARAFAEKNNLSFIETSAL` has protein stability index of 2.55

Per the record, `AVPTDEARAFAEKNNLSFIETPAL` has protein stability index of 4.02

Per the record, `AVPTDEARAFAEKNNLMFIETSAL` has protein stability index of 3.1

Per the record, `AVPTDEAREFAEKNNLSFIETSAL` has protein stability index of 3.82

Per the record, `AVPTDEARAFAEKNNLSFIETSKL` has protein stability index of 3.28

Per the record, `AVPTDEARAFSEKNNLSFIETSAL` has protein stability index of 2.68

Per the record, `AVPTDEARAFAEKNNLSFIETKAL` has protein stability index of 3.69

Per the record, `AVPTDEARAFAEKNNLSMIETSAL` has protein stability index of 4.1

Per the record, `AVPTDEARAFANKNNLSFIETSAL` has protein stability index of 2.02

Per the record, `AVPTDEARAFAEKNNLSQIETSAL` has protein stability index of 4.18

Per the record, `AVPVDEARAFAEKNNLSFIETSAL` has protein stability index of 2.78

Per the record, `AVPTDELRAFAEKNNLSFIETSAL` has protein stability index of 2.16

Per the record, `AVPTDDARAFAEKNNLSFIETSAL` has protein stability index of 2.95

Per the record, `AVKTDEARAFAEKNNLSFIETSAL` has protein stability index of 2.44

Per the record, `AVPCDEARAFAEKNNLSFIETSAL` has protein stability index of 2.78

Per the record, `AVPTWEARAFAEKNNLSFIETSAL` has protein stability index of 1.38

Per the record, `AVPTDEARAFAEKNNLSFIETSAA` has protein stability index of 3.49

Per the record, `AVPDDEARAFAEKNNLSFIETSAL` has protein stability index of 3.63

Per the record, `IVPTDEARAFAEKNNLSFIETSAL` has protein stability index of 2.07

Per the record, `AVPTHEARAFAEKNNLSFIETSAL` has protein stability index of 2.61

Per the record, `AVPTDEARAFAEVNNLSFIETSAL` has protein stability index of 2.13

Per the record, `AVPTDAARAFAEKNNLSFIETSAL` has protein stability index of 2.45

Per the record, `AVPTQEARAFAEKNNLSFIETSAL` has protein stability index of 2.42

Per the record, `AVPTDEARAFAEKNNLWFIETSAL` has protein stability index of 2.64

Per the record, `AVPTDEARAFAEKNNLSFIEPSAL` has protein stability index of 2.35

Per the record, `AVPTDEARAFAEKNNLSCIETSAL` has protein stability index of 4.48

Per the record, `AVPTDEARAFAEKNNLSFIETIAL` has protein stability index of 2.49

Per the record, `AVPTYEARAFAEKNNLSFIETSAL` has protein stability index of 2.08

Per the record, `AVPTDEARAFAEKPNLSFIETSAL` has protein stability index of 2.53

Per the record, `AVPTDKARAFAEKNNLSFIETSAL` has protein stability index of 2.04

Per the record, `AVPTDEARAFAEKNNLDFIETSAL` has protein stability index of 3.48

Per the record, `AVPTDEARAFAEKNNLSFIETRAL` has protein stability index of 3.13

Per the record, `AVPTDEARAFAETNNLSFIETSAL` has protein stability index of 2.63
